- System: A549 lung adenocarcinoma cells
- Protocol Notes: MTT cytotoxicity assay, 72 h
- Assay type: cell-based, human
- Test Context: read-out: IC50, after 72 h incubation, A549; MTT, 72 h
Endpoint: pIC50
Lab note — pIC50 values are minus log10 of concentrations in M.

Task: # lookup: pIC50 of N.N.[Cl][Pt][Cl] [Cis-Pt, cisplatin]
Result: 5.49

###

- Tested on: HT-29 colon adenocarcinoma cells
- Protocol Notes: MTT cytotoxicity assay, 72 h
- Format: cell-based, human
- Test Context: Homo sapiens, HT-29, 72 h, read-out: IC50, after 72 h incubation, HT-29
Endpoint: IC50

Task: # lookup: IC50 of C[C@]12CCC(=O)C(O)=C1CC[C@@H]1[C@@H]2CC[C@]2(C)C(=O)CC[C@@H]12 [For, formestane]
Result: > 100 µM

###

- Tested on: PC-3 prostate cancer cells
- Protocol Notes: MTT cytotoxicity assay, 72 h
- Format: cell-based, human
- Test Context: Homo sapiens, read-out: IC50, after 72 h incubation, PC-3
Endpoint: IC50 (µM)
Value expressed in µM; do not type the unit.

Task: # lookup: IC50 of C[C@]12CCC(=O)C(O)=C1CC[C@@H]1[C@@H]2CC[C@]2(C)C(=O)CC[C@@H]12
Result: 26.4

// data source = paper PMC9043769
